- Test system: 786-0 renal
- ASSAY_PROTOCOL: NCI-60 one-dose screen, 48 h (100 = growth as untreated, 0 = no growth, -100 = all killed)
- SETTINGS: 10 µM unless noted
The panel holds about 83,000 compounds, 20% with a hit somewhere; the sample as a whole holds those more often.
Please mark 1 (yes) if the recorded growth is equal to or greater than 50%, and 0 (no) if it falls below.

CCCCCCCC/C=C/CCCCCCCC1=NC(C)(C)CN1CC(C)O (configuration not stated) | 1 (yes)
CC1=CC(=O)C(C(C)=Nc2ccccc2Cl)C(=O)O1 (configuration not stated) | 1 (yes)
COc1ccc2nccc(/C=C/c3ccnc4ccc(OC)cc34)c2c1 | 1 (yes)
Cc1ccc(C(C)C)cc1NC(=O)Nc1ccc([N+](=O)[O-])cc1 | 0 (no)
Cc1ccc(NC(=O)CSc2nnc3n(Cc4ccccc4)c(=O)c4c(C)c(C(N)=O)sc4n23)cc1 | 0 (no)

## Task Does the compound COc1cc(C(=O)/C=C/c2cccnc2Nc2ccccc2)cc(OC)c1OC have recorded growth that is 50% or more?
## Result 0 (no)

## Task Does the compound Clc1ccccc1[C@@H]1C[C@@H]2Cc3cc(Br)c4ccccc4c3N1O2 have recorded growth that is 50% or more?
## Result 1 (yes)
